Tested on: MS2 coat protein
Assay: apparent KD of MS2 coat protein; designed switch direction (-1 OFF switch, 1 ON switch): -1; higher = weaker reporter binding
Conditions: input ligand: FMN 200 uM

>  <SEQUENCE DATA>
CUGUACUGAGGAUAUACAUGAGGAUCACCCAUGUGUCCCAGCUAGGAAACUAGCAAAGGUAGAAGGCAGUACAG [Mat - Exclusion 3 - Eli Mod - D57] (Eterna round: R97, puzzle: Exclusion 3)

>  <apparent KD of MS2 coat protein / nM>
302

$$$$
>  <SEQUENCE DATA>
UUAAAUCAUGUAGGAUAUGCGUGGCGAAGCUAUGCAGAAGGACAUGAGGAUCACCCAUGUGCUGCGGUCUGCGUACAGAUCGCU [JL ENG1 1.03] (Eterna round: R96, puzzle: Exclusion NG 1)

>  <apparent KD of MS2 coat protein / nM>
98.7

$$$$
>  <SEQUENCE DATA>
AAGAGGAUUACAGGAUAUGAAGCUAAAACGGCGUUAGAAGGGUAUACAGAGUUACAUGAGGAUCACCCAUGUUGUGAUUUCUAA [AK ExNG1-V2-4.2] (Eterna round: R96, puzzle: Exclusion NG 1)

>  <apparent KD of MS2 coat protein / nM>
48.4

$$$$
>  <SEQUENCE DATA>
UAAACAUGGAUAUAACAGUACAUGAGGAUCACCCAUGUUAAUAUGAUAAAUUAUAACAAGUUUUUUUGUCGUCUUAA [Feeding at the Trough] (Eterna round: R97, puzzle: Sensor, turn-off variant 1)

>  <apparent KD of MS2 coat protein / nM>
47

$$$$
>  <SEQUENCE DATA>
CCCUCACUUGAGGAUCACCCAAGUCAGGAUAUCUCACCCAUCCUACGGGACGGGUCACAGAGAAGGGACUAAAA [Isdius] (Eterna round: R97, puzzle: Exclusion 1)

>  <apparent KD of MS2 coat protein / nM>
37.3

$$$$
